# Test target: human Cystic Fibrosis Transmembrane Conductance Regulator (CFTR) harboring the ΔF508 mutation (Homo sapiens, UniProt P13569, DEL508-508)
# Sequence (P13569 with tags, fused parts or gaps DEL508-508): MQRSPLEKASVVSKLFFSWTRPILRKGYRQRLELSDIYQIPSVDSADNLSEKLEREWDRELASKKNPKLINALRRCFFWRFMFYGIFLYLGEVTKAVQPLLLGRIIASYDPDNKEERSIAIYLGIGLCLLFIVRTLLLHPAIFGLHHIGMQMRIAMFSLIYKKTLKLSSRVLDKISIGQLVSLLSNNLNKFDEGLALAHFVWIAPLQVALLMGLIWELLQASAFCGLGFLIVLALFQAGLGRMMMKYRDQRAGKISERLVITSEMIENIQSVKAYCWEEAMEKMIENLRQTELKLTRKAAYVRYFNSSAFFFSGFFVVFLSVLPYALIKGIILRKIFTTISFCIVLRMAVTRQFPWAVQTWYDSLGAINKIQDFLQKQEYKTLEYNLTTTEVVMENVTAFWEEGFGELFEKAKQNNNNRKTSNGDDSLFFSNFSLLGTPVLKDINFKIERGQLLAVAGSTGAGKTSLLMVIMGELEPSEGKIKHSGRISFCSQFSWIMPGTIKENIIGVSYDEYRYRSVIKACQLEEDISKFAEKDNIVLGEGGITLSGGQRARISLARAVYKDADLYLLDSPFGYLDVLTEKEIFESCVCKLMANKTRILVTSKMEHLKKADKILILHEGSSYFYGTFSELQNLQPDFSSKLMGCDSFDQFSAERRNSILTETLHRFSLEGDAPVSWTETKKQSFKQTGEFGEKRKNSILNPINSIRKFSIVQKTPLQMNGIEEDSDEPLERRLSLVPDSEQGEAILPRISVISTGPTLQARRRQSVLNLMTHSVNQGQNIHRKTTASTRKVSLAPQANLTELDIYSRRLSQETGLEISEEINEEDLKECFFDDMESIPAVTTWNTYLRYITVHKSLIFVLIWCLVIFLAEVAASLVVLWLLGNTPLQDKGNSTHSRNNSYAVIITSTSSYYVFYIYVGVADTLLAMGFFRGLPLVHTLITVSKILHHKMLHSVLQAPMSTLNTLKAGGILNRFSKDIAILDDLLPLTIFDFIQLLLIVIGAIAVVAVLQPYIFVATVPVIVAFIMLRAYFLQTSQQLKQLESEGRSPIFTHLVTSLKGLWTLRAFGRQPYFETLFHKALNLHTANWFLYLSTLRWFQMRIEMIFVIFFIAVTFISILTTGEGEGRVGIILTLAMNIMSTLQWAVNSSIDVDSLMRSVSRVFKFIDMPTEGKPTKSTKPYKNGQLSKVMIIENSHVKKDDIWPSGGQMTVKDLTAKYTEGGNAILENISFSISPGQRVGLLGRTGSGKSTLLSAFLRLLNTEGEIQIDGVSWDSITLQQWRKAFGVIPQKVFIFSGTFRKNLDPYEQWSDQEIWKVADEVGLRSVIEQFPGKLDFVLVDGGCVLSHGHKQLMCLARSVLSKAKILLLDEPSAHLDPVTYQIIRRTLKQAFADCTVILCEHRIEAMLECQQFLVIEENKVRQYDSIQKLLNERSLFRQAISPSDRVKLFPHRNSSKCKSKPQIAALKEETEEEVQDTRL
# Assay: H441 cell ΔF508-CFTR-HRP cell surface assay (Emax and EC50)
Measured property: EC50 (nM)

O=C(N[C@H](C(=O)O)c1cccc2ccccc12)c1ccc2ccccc2c1OCc1ccc(C(F)(F)F)cc1	2200
CC(C)(C)C[C@H](NC(=O)c1ccc2ccccc2c1OCc1ccc(S(=O)(=O)C(F)(F)F)cc1)C(=O)O	7100
COc1ccc2c(OCc3ccc(C(F)(F)F)cc3)c(C(=O)N[C@H](C(=O)O)C3CCCC3)ccc2c1	3300
CC1(C(NC(=O)c2ccc3ccccc3c2OCc2ccc(S(F)(F)(F)(F)F)cc2)C(=O)O)CC1 (stereo not shown)	1900
CN(C)c1ccc2c(OCc3ccc(C(F)(F)F)cc3)c(C(=O)N[C@H](C(=O)O)C(C)(C)C)ccc2c1	1600

A: CCC(C)(C)[C@@H](NC(=O)c1ccc2ccc(C)cc2c1OCc1ccc(OC(F)(F)F)cc1)C(=O)O
B: CCC(C)(C)[C@H](NC(=O)c1ccc2ccc(C(F)F)cc2c1OCc1ccc(OC(F)(F)F)cc1)C(=O)O
Request: Select the item whose EC50 value is smaller, choosing between A and B . Your answer should be the label attached to the chosen record.
Response: B
(B: 100 nM, A: 2200 nM)

====

# Test target: human Cystic Fibrosis Transmembrane Conductance Regulator (CFTR) harboring the ΔF508 mutation (Homo sapiens, UniProt P13569, DEL508-508)
# Construct: expressed in transfected cells; host or cells: H441 carcinoma line (G418-selected)
# Assay: H441 cell ΔF508-CFTR-HRP cell surface assay (Emax and EC50)
# Type: cell-based
# Condition parameters: NCI-H441, NA = Not active
Measured property: Emax (%)

CCCC(C)(CC)[C@H](NC(=O)c1ccc2ccc(Cl)cc2c1OCc1ccc(OC(F)(F)F)cc1)C(=O)O (stereo partly drawn) [Example 251]	267
C=CCOc1ccc(C[C@H](NC(=O)c2ccc3ccccc3c2OCc2ccc(C(F)(F)F)cc2)C(=O)O)cc1 [Example 92]	52.6
CC(C)(C)[C@H](NC(=O)c1ccc2ccccc2c1OCc1ccc(S(C)(=O)=O)cc1)C(=O)O [Example 66]	12.8
O=C(N[C@@H](Cc1ccccc1)C(=O)O)c1ccc2ccccc2c1OCCc1ccc(C(F)(F)F)cc1 [Example 97]	1.1

A: CC1(C(NC(=O)c2ccc3ccccc3c2OCc2ccc(C(F)(F)F)cc2)C(=O)O)CCCCC1 (stereo not drawn) [Example 80]
B: Cc1cc(COc2c(C(=O)N[C@H](C(=O)O)C(C)(C)C)ccc3ccccc23)no1 [Example 86]
Request: Select the item whose Emax value is smaller, choosing between A and B . Your answer should be the label attached to the chosen record.
Response: B

====

# Test target: human Cystic Fibrosis Transmembrane Conductance Regulator (CFTR) harboring the ΔF508 mutation (Homo sapiens, UniProt P13569, DEL508-508)
# Assay: H441 cell ΔF508-CFTR-HRP cell surface assay (Emax and EC50)
pEC50: −log10 of the molar value.
Measured property: pEC50

Some solved entries appear below for comparison.
CC(C)(C)[C@H](NC(=O)c1ccc2ccc(Cl)cc2c1OCc1ccc(OC(F)(F)F)cc1)C(=O)O	7.00
CC(C)(C)[C@H](NC(=O)c1ccc2ccccc2c1OCc1ccc(OC(F)(F)F)cc1)C(=O)O	5.36
CS(=O)(=O)c1ccc(COc2c(C(=O)N[C@H](C(=O)O)C3CCCC3)ccc3ccccc23)cc1	5.17
CCC(C)(C)[C@H](NC(=O)c1ccc2ccc(C)cc2c1OCCCC(C)(C)C)C(=O)O	6.22
CCC(C)(C)[C@H](NC(=O)c1ccc2ccc(C)cc2c1OCc1ccc(OC(F)(F)F)cc1)C(=O)O	6.52

1: COC(C)(C)[C@H](NC(=O)c1ccc2cc(F)ccc2c1OCc1ccc(SC(F)(F)F)cc1)C(=O)O
2: O=C(N[C@H](C(=O)O)C(c1ccccc1)c1ccccc1)c1ccc2ccccc2c1OCc1nc2ccccc2s1
Request: Recorded pEC50 values differ for 1 and 2 ; which one is higher? Your answer should be the label attached to the chosen record.
Response: 2
(2: 5.92, 1: 5.55)

====

# Test target: human Cystic Fibrosis Transmembrane Conductance Regulator (CFTR) harboring the ΔF508 mutation (Homo sapiens, UniProt P13569, DEL508-508)
# Assay: H441 cell ΔF508-CFTR-HRP cell surface assay (Emax and EC50)
Measured property: EC50 (µM)

Some solved entries appear below for comparison.
O=C(N[C@H](C(=O)O)C1CCCC1)c1ccc2ccccc2c1OCc1ccc(S(=O)(=O)C(F)(F)F)cc1 [Example 156]	1.9
O=C(N[C@H](C(=O)O)C1CCCC1)c1ccc2cc(F)ccc2c1OCc1ccc(C(F)(F)F)cc1 [Example 153]	1.5

P: CC(C)(C)[C@H](NC(=O)c1ccc2cc(N)ccc2c1OCc1ccc(C(F)(F)F)cc1)C(=O)O [Example 52]
Q: N#Cc1ccc(COc2c(C(=O)N[C@@H](Cc3ccccc3)C(=O)O)ccc3ccccc23)cc1 [Example 125]
Request: Recorded EC50 values differ for P and Q ; which one is higher? Your answer should be the label attached to the chosen record.
Response: Q

P: O=C(N[C@H](C(=O)O)[C@H](O)c1ccccc1)c1ccc2ccccc2c1OCc1ccc(C(F)(F)F)cc1 [Example 129]
Q: CC(C)(C)[C@H](NC(=O)c1ccc2ccc(-c3cscn3)cc2c1OCc1ccc(C(F)(F)F)cc1)C(=O)O [Example 243]
R: C[C@@H](OCc1ccccc1)C(NC(=O)c1ccc2ccccc2c1OCC1CCC(CO)CC1)C(=O)O (stereo partly shown) [Example 146]
Request: Thanks in advance: please rank these 3 entries by EC50, highest to lowest. Put the labels in the requested order and write them down.
Response: R, P, Q
(R: 17.4 µM, P: 12 µM, Q: 0.5 µM)

====

# Test target: human Cystic Fibrosis Transmembrane Conductance Regulator (CFTR) harboring the ΔF508 mutation (Homo sapiens, UniProt P13569, DEL508-508)
# Construct: expressed in transfected cells; host or cells: H441 carcinoma line (G418-selected)
# Assay: H441 cell ΔF508-CFTR-HRP cell surface assay (Emax and EC50)
# Format: cell-based
# Condition parameters: NCI-H441, NA = Not active
Measured property: Emax (%)

A: CC(OCc1ccccc1)[C@H](NC(=O)c1ccc2cc(F)ccc2c1OCc1ccc(OC(F)(F)F)cc1)C(=O)O (stereo in doubt) [Example 192]
B: CCC1([C@H](NC(=O)c2ccc3ccc(Cl)cc3c2OCc2ccc(C(F)(F)F)cc2)C(=O)O)CCCC1 [Example 258]
Request: Select the item whose Emax value is smaller, choosing between A and B . Your answer should be the label attached to the chosen record.
Response: A

I: CC(C)(C)[C@H](NC(=O)c1ccc2ccc(Cl)cc2c1OCc1ccc(C(F)(F)F)cc1)C(=O)O [Example 286]
II: CC(C)(C)[C@H](NC(=O)c1ccc2ccccc2c1OCc1ccc([N+](=O)[O-])cc1)C(=O)O [Example 231]
III: CC(C)(C)[C@H](NC(=O)c1ccc2ccccc2c1OCc1ccc(S(F)(F)(F)(F)F)cc1)C(=O)O [Example 67]
IV: CC(C)(S[C@@H]1C[C@@H]2CC[C@H]1C2)[C@H](NC(=O)c1ccc2ccccc2c1OCc1ccc(S(C)(=O)=O)cc1)C(=O)O [Example 176]
Request: Thanks in advance: please rank these 4 entries by Emax, highest to lowest. Put the labels in the requested order and write them down.
Response: I, III, II, IV

a: C=CC(C)(C)C(NC(=O)c1ccc2ccccc2c1OCc1ccc(C(F)(F)F)cc1)C(=O)O (centres unmarked) [Example 223]
b: O=C(N[C@H](C(=O)O)C1CCCC1)c1ccc2cc(F)ccc2c1OCc1ccc(SC(F)(F)F)cc1 [Example 116]
c: COc1ccc2ccc(C(=O)N[C@H](C(=O)O)C(C)(C)C)c(OCc3ccc(OC(F)(F)F)cc3)c2c1 [Example 310]
Request: Please produce an ascending ranking of these compounds based on Emax. Put the labels in the requested order and write them down.
Response: b, a, c
(b: 51.4%, a: 112%, c: 299%)

a: O=C(N[C@@H](Cc1ccc(C(F)(F)F)cc1)C(=O)O)c1ccc2cc(F)ccc2c1OCc1ccc(C(F)(F)F)cc1 [Example 197]
b: O=C(NC(C(=O)O)C1(C(F)(F)F)CC1)c1ccc2ccc(Cl)cc2c1OCc1ccc(OC(F)(F)F)cc1 (centres unmarked) [Example 238]
c: O=C(N[C@H](C(=O)O)C1CCCC1)c1ccc2cc(F)ccc2c1OCc1ccc(OC(F)(F)F)cc1 [Example 119]
Request: Thanks in advance: please rank these 3 entries by Emax, highest to lowest. Put the labels in the requested order and write them down.
Response: b, a, c

====

# Test target: human Cystic Fibrosis Transmembrane Conductance Regulator (CFTR) harboring the ΔF508 mutation (Homo sapiens, UniProt P13569, DEL508-508)
# Assay: H441 cell ΔF508-CFTR-HRP cell surface assay (Emax and EC50)
pEC50: −log10 of the molar value.
Measured property: pEC50

Some solved entries appear below for comparison.
CC1(C(NC(=O)c2ccc3ccccc3c2OCc2ccc(S(C)(=O)=O)cc2)C(=O)O)CCCCC1 (stereo not drawn)	5.29
CC(C)(C)[C@H](NC(=O)c1ccc2ccccc2c1OC[C@H]1CC[C@@H](C(F)(F)F)CC1)C(=O)O	5.34
CCC(C)(C)[C@H](NC(=O)c1ccc2ccc(OC)cc2c1OCc1ccc(C(F)(F)F)cc1)C(=O)O	6.52
O=C(NC(C(=O)O)C1(C(F)(F)F)CC1)c1ccc2ccc(Cl)cc2c1OCc1ccc(OC(F)(F)F)cc1 (stereo not drawn)	6.10
CC1([C@H](NC(=O)c2ccc3ccc(C(F)(F)F)cc3c2OCc2ccc(OC(F)(F)F)cc2)C(=O)O)CC1	6.30
O=C(N[C@H](C(=O)O)C(c1ccccc1)c1ccccc1)c1ccc2ccccc2c1OCC1CCCCC1	6.30
CC1([C@H](NC(=O)c2ccc3ccc(C(F)(F)F)cc3c2OCc2ccc(C(F)(F)F)cc2)C(=O)O)CCC1	6.70
O=C(N[C@@H](CCc1ccccc1)C(=O)O)c1ccc2ccccc2c1OCc1ccc(C(F)(F)F)cc1	5.14
CCC(C)(C)[C@H](NC(=O)c1ccc2cc(OC)ccc2c1OCc1ccc(SC(F)(F)F)cc1)C(=O)O	5.82
CCCC(C)(C)[C@H](NC(=O)c1ccc2ccc(Cl)cc2c1OCc1ccc(C(F)(F)F)cc1)C(=O)O	7.00

a: COC(=O)c1ccc(COc2c(C(=O)N[C@H](C(=O)O)C(C)(C)C)ccc3ccccc23)cc1
b: O=C(N[C@H](C(=O)O)C1CCCC1)c1ccc2cc(F)ccc2c1OCc1ccc(OC(F)(F)F)cc1
c: CCC(C)(C)[C@H](NC(=O)c1ccc2ccc(C(F)F)cc2c1OCc1ccc(C(F)(F)F)cc1)C(=O)O
d: CC(C)(O)[C@H](NC(=O)c1ccc2ccccc2c1OCc1ccc(C(F)(F)F)cc1)C(=O)O
Request: Thanks in advance: please rank these 4 entries by pEC50, highest to lowest. Put the labels in the requested order and write them down.
Response: c, b, a, d
